biological target: S31N mutant of the A/M2 protein (Influenza A virus, UniProt P0DOF5, S31N); type: biochemical
% S31N inhibition reference
experimental_readout: % S31N inhibition

compound="c1cc(-c2cc(CNC34CC5CC(CC(C5)C3)C4)no2)cs1 [14i]" study_target="S31N mutant of the A/M2 protein (Influenza A virus, UniProt P0DOF5, S31N)" observed="90/N.T. %"
compound="c1coc(-c2cc(CNC34CC5CC(CC(C5)C3)C4)no2)c1 [14j]" study_target="S31N mutant of the A/M2 protein (Influenza A virus, UniProt P0DOF5, S31N)" observed="84/N.T. %"
compound="COc1ccc(-c2noc(CNC34CC5CC(CC(C5)C3)C4)n2)cc1OC [20a]" study_target="S31N mutant of the A/M2 protein (Influenza A virus, UniProt P0DOF5, S31N)" observed="39/N.T. %"
compound="COCc1cc(CNC23CC4CC(CC(C4)C2)C3)no1 [14e]" study_target="S31N mutant of the A/M2 protein (Influenza A virus, UniProt P0DOF5, S31N)" observed="39/N.T. %"
compound="c1csc(-c2cc(CNC34CC5CC(C3)C3(CO3)C(C5)C4)no2)c1 (centres unmarked) [30d]" study_target="S31N mutant of the A/M2 protein (Influenza A virus, UniProt P0DOF5, S31N)" observed="61/N.T. %"
compound="OC12CC3CC(O)(C1)CC(NCc1cc(-c4cccs4)on1)(C3)C2 [compound 30h]" study_target="S31N mutant of the A/M2 protein (Influenza A virus, UniProt P0DOF5, S31N)" observed=88/45%
compound="Fc1cc(F)cc(-c2cc(CNC34CC5CC(CC(C5)C3)C4)no2)c1 [14o]" study_target="S31N mutant of the A/M2 protein (Influenza A virus, UniProt P0DOF5, S31N)" observed="78/N.T. %"
compound="Fc1cccc(F)c1-c1cc(CNC23CC4CC(CC(C4)C2)C3)no1 [14p]" study_target="S31N mutant of the A/M2 protein (Influenza A virus, UniProt P0DOF5, S31N)" observed=85/68%
compound="c1csc(-c2nnc(CNC34CC5CC(CC(C5)C3)C4)s2)c1 [26b]" study_target="S31N mutant of the A/M2 protein (Influenza A virus, UniProt P0DOF5, S31N)" observed="83/N.T. %"
compound="c1cc(-c2nc(CNC34CC5CC(CC(C5)C3)C4)no2)cs1 [18g]" study_target="S31N mutant of the A/M2 protein (Influenza A virus, UniProt P0DOF5, S31N)" observed="81/N.T. %"
compound="CC(C)Cc1nc(CNC23CC4CC(CC(C4)C2)C3)no1 [18e]" study_target="S31N mutant of the A/M2 protein (Influenza A virus, UniProt P0DOF5, S31N)" observed="62/N.T. %"
compound="c1csc(-c2ncc(CNC34CC5CC(CC(C5)C3)C4)s2)c1 [26e]" study_target="S31N mutant of the A/M2 protein (Influenza A virus, UniProt P0DOF5, S31N)" observed="75/N.T. %"
compound="COc1ccc(-c2nc(CNC34CC5CC(CC(C5)C3)C4)no2)c(OC)c1 [compound 18m]" study_target="S31N mutant of the A/M2 protein (Influenza A virus, UniProt P0DOF5, S31N)" observed="82/N.T. %"
compound="c1csc(-c2nc(CNC34CC5CC(CC(C5)C3)C4)cs2)c1 [26h]" study_target="S31N mutant of the A/M2 protein (Influenza A virus, UniProt P0DOF5, S31N)" observed="37/N.T. %"
compound="OC1C2CC3CC1CC(NCc1cc(-c4cccs4)on1)(C3)C2 (centres unmarked) [30b]" study_target="S31N mutant of the A/M2 protein (Influenza A virus, UniProt P0DOF5, S31N)" observed=91/56%
compound="COc1ccc(-c2nnc(CNC34CC5CC(CC(C5)C3)C4)o2)cc1 [26d]" study_target="S31N mutant of the A/M2 protein (Influenza A virus, UniProt P0DOF5, S31N)" observed="58/N.T. %"
compound="COc1ccccc1-c1noc(CNC23CC4CC(CC(C4)C2)C3)n1 [20b]" study_target="S31N mutant of the A/M2 protein (Influenza A virus, UniProt P0DOF5, S31N)" observed="58/N.T. %"
compound="CSC(C)(C)Cc1cc(CNC23CC4CC(CC(C4)C2)C3)no1 [14g]" study_target="S31N mutant of the A/M2 protein (Influenza A virus, UniProt P0DOF5, S31N)" observed="70/N.T. %"
compound="Clc1ccccc1-c1cc(CNC23CC4CC(CC(C4)C2)C3)no1 [14m]" study_target="S31N mutant of the A/M2 protein (Influenza A virus, UniProt P0DOF5, S31N)" observed=87/65%
compound="c1ccc(-c2nnc(CNC34CC5CC(CC(C5)C3)C4)o2)cc1 [26c]" study_target="S31N mutant of the A/M2 protein (Influenza A virus, UniProt P0DOF5, S31N)" observed="61/N.T. %"
compound="c1c(CNC23CC4CC(CC(C4)C2)C3)noc1C1CCC1 [14d]" study_target="S31N mutant of the A/M2 protein (Influenza A virus, UniProt P0DOF5, S31N)" observed="84/N.T. %"
compound="O=C1C2CC3CC1CC(NCc1cc(-c4cccs4)on1)(C3)C2 [30a]" study_target="S31N mutant of the A/M2 protein (Influenza A virus, UniProt P0DOF5, S31N)" observed="78/N.T. %"
compound="c1csc(-c2cc(CNC34CC5COC(CC(C5)C3)C4)no2)c1 (centres unmarked) [30e]" study_target="S31N mutant of the A/M2 protein (Influenza A virus, UniProt P0DOF5, S31N)" observed="72/N.T. %"
compound=Oc1ccc(NC23CC4CC(CC(C4)C2)C3)c(O)c1 study_target="S31N mutant of the A/M2 protein (Influenza A virus, UniProt P0DOF5, S31N)" observed=67%
compound="c1coc(-c2nc(CNC34CC5CC(CC(C5)C3)C4)no2)c1 [18h]" study_target="S31N mutant of the A/M2 protein (Influenza A virus, UniProt P0DOF5, S31N)" observed="73/N.T. %"
compound="c1csc(-c2nnc(CNC34CC5CC(CC(C5)C3)C4)o2)c1 [26a]" study_target="S31N mutant of the A/M2 protein (Influenza A virus, UniProt P0DOF5, S31N)" observed="52/N.T. %"
compound="CCCc1nc(CNC23CC4CC(CC(C4)C2)C3)no1 [18b]" study_target="S31N mutant of the A/M2 protein (Influenza A virus, UniProt P0DOF5, S31N)" observed=77/19%
compound="c1ccc(-c2nc(CNC34CC5CC(CC(C5)C3)C4)cs2)cc1 [26i]" study_target="S31N mutant of the A/M2 protein (Influenza A virus, UniProt P0DOF5, S31N)" observed="24/N.T. %"
compound="COc1ccsc1-c1cc(CNC23CC4CC(CC(C4)C2)C3)no1 [14k]" study_target="S31N mutant of the A/M2 protein (Influenza A virus, UniProt P0DOF5, S31N)" observed=90/87%
compound="c1c(C2CCCCC2)noc1CNC12CC3CC(CC(C3)C1)C2 [20c]" study_target="S31N mutant of the A/M2 protein (Influenza A virus, UniProt P0DOF5, S31N)" observed="67/N.T. %"
compound="CSc1ccccc1-c1cc(CNC23CC4CC(CC(C4)C2)C3)no1 [14s]" study_target="S31N mutant of the A/M2 protein (Influenza A virus, UniProt P0DOF5, S31N)" observed="79/N.T. %"
compound="COc1cccc(-c2cc(CNC34CC5CC(CC(C5)C3)C4)no2)c1 [14r]" study_target="S31N mutant of the A/M2 protein (Influenza A virus, UniProt P0DOF5, S31N)" observed=87/73%
compound="COc1ccc(-c2cc(CNC34CC5CC(CC(C5)C3)C4)no2)c(OC)c1 [compound 14t]" study_target="S31N mutant of the A/M2 protein (Influenza A virus, UniProt P0DOF5, S31N)" observed="62/N.T. %"
compound="CCCc1cc(CNC23CC4CC(CC(C4)C2)C3)no1 [14b]" study_target="S31N mutant of the A/M2 protein (Influenza A virus, UniProt P0DOF5, S31N)" observed=81/49%
compound="Brc1ccccc1-c1cc(CNC23CC4CC(CC(C4)C2)C3)no1 [14n]" study_target="S31N mutant of the A/M2 protein (Influenza A virus, UniProt P0DOF5, S31N)" observed="77/N.T. %"
compound="CC1(O)C2CC3CC1CC(NCc1cc(-c4cccs4)on1)(C3)C2 (centres unmarked) [30c]" study_target="S31N mutant of the A/M2 protein (Influenza A virus, UniProt P0DOF5, S31N)" observed=87/48%
compound="NC12CC3CC(CC(C3)C1)C2 [AMT (1), amantadine, reference compound]" study_target="S31N mutant of the A/M2 protein (Influenza A virus, UniProt P0DOF5, S31N)" observed=36%
compound="CC(C)c1cc(CNC23CC4CC(CC(C4)C2)C3)no1 [14f]" study_target="S31N mutant of the A/M2 protein (Influenza A virus, UniProt P0DOF5, S31N)" observed=80/55%
